Values were extracted from paper PMC7851594.

- assayed.target: drT2R3a (Danio rerio, UniProt Q2AB30)
- Sequence (Q2AB30 1-313): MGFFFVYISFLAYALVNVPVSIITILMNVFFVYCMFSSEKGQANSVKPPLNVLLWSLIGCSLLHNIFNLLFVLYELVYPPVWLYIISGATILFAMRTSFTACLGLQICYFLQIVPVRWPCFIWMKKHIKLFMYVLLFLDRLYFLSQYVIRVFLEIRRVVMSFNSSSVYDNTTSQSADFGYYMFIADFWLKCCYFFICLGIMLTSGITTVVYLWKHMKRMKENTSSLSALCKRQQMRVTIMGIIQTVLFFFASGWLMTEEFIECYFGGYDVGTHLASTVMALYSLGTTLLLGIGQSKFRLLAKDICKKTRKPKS
pIC50: −log10 of the molar value.
readout.kind: pIC50

> print(dat)
                              molecule  recorded.measurement
1  O=C1NS(=O)(=O)c2ccccc21 [saccharin]                  3.04

====

- assayed.target: drT2R3a (Danio rerio)
readout.kind: EC50 (µM)

> print(dat)
                                   compound  readout.kind  recorded.measurement
1  CC[N+](CC)(CC(=O)Nc1c(C)cccc1C)Cc1ccccc1 [DB, Denatonium benzoate]          EC50                   230
